Ref: the supplement of paper PMC9233669

// reported self-aminoacylation per item
tested on: biotinyl-Ile-oxazolone; test: self-aminoacylation, catalytic enhancement (BIO) (fold over background); higher = more active; k-Seq, kA / k0A0; sequences stand for … in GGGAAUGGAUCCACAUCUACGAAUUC…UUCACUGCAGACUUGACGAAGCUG
Variants at the floor of the assay were thinned out.

{"columns": ["item_sequence", "self-aminoacylation"],
 "data": [
  ["CCACACUUCAAGCUAACGGUC [Fam1B.1 aminoacylation ribozyme variant]", 0.568],
  ["AAGUUUGCUAGUAAUCGCAAG [Fam3.1 aminoacylation ribozyme variant]", 0.761],
  ["AUUCACCUGGGGCAUCGGGUG [Fam2.2 aminoacylation ribozyme variant]", 4.42]
]}

stdin: Query self-aminoacylation on biotinyl-Ile-oxazolone for CUACUACAAACCAUCGGUCUG [Fam1A.1 aminoacylation ribozyme variant]
stdout: 0.837

----------
tested on: biotinyl-Trp-oxazolone; experiment: self-aminoacylation, catalytic enhancement (BWO) (fold over background); higher = more active; k-Seq, kA / k0A0; sequences stand for … in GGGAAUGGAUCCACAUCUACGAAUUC…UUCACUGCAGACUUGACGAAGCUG
Fewer inactive variants are shown than the library holds.
measured_endpoint: self-aminoacylation
The response must contain the number and no unit.

stdin: What value of self-aminoacylation has been recorded for this entry: AGUCACCUAGGUCAUGGGGUG [Fam2.2 aminoacylation ribozyme variant]
stdout: 5.76

----------
system: biotinyl-Trp-oxazolone; experiment: self-aminoacylation, catalytic enhancement (BWO) (fold over background); higher = more active; k-Seq, kA / k0A0; sequences stand for … in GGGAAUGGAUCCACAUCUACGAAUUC…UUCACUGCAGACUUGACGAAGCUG
Fewer inactive variants are shown than the library holds.
// reported self-aminoacylation per item
The response must contain the number and no unit.

Observe how each entry below is paired with its result.
{"columns": ["item_sequence", "self-aminoacylation"],
 "data": [
  ["UCACCCUUCAAGCAAUCGGUC [Fam1B.1 aminoacylation ribozyme variant]", 6.03],
  ["UAAUUUGCUAAUAGUCGCAAG [Fam3.1 aminoacylation ribozyme variant]", 2.01],
  ["CCACAUUUCAACCAAUCGGUC [Fam1B.1 aminoacylation ribozyme variant]", 5.58],
  ["CUACUUCAAGUAAUCGGUCUG [Fam1A.1 aminoacylation ribozyme variant]", 6.74]
]}

Shifting focus to the sequence that follows.
stdin: What value of self-aminoacylation has been recorded for this entry: AAAUUUGCUAAUAGUCGCACG [Fam3.1 aminoacylation ribozyme variant]
stdout: 1.81

----------
tested on: biotinyl-Met-oxazolone; experiment: self-aminoacylation, catalytic enhancement (BMO) (fold over background); higher = more active; k-Seq, kA / k0A0; sequences stand for … in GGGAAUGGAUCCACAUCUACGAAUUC…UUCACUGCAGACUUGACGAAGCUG
Fewer inactive variants are shown than the library holds.
Note to self: values exactly at 0.9 are Condition met. So self-aminoacylation at or above 0.9 is Condition met, below is Condition not met.

Worked cases, answers included:
{"columns": ["item_sequence", "assigned_category"],
 "data": [
  ["CUACUACAAACAAUCGGGCUG [Fam1A.1 aminoacylation ribozyme variant]", "Condition met"],
  ["CUACUUCAUACAAUCUGUCUG [Fam1A.1 aminoacylation ribozyme variant]", "Condition not met"],
  ["CUACUUCAAACAAUCGCUCAG [Fam1A.1 aminoacylation ribozyme variant]", "Condition not met"]
]}

Note: attention shifts to another entry.
stdin: Hello, I need to know if AAGUCUGCUAAUAGACGCAAG [Fam3.1 aminoacylation ribozyme variant] has measured self-aminoacylation not below 0.9. Thanks!
stdout: Condition not met

----------
tested on: biotinyl-Ile-oxazolone; experiment: self-aminoacylation, catalytic enhancement (BIO) (fold over background); higher = more active; k-Seq, kA / k0A0; sequences stand for … in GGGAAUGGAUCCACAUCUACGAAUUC…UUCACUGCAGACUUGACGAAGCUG
Fewer inactive variants are shown than the library holds.
// reported self-aminoacylation per item
The response must contain the number and no unit.

Observe how each entry below is paired with its result.
{"columns": ["item_sequence", "assayed_system", "self-aminoacylation"],
 "data": [
  ["AAGUUUGCUAAUGGUCGCGAG [Fam3.1 aminoacylation ribozyme variant]", "biotinyl-Ile-oxazolone", 1.21],
  ["AAAUUCGCUAAUAGUCGCAAG [Fam3.1 aminoacylation ribozyme variant]", "biotinyl-Ile-oxazolone", 2.89],
  ["CUUCACCUGGGUCAUCGGGUG [Fam2.2 aminoacylation ribozyme variant]", "biotinyl-Ile-oxazolone", 2.43],
  ["CCACACUUCCAGCAGUCGGUC [Fam1B.1 aminoacylation ribozyme variant]", "biotinyl-Ile-oxazolone", 1.24],
  ["AUGCACCUAGGUCAUCGUGUG [Fam2.2 aminoacylation ribozyme variant]", "biotinyl-Ile-oxazolone", 1.04]
]}

stdin: What value of self-aminoacylation has been recorded for this entry: GAGUUUGCUAAUAGGCGCAAG [Fam3.1 aminoacylation ribozyme variant]
stdout: 0.982

stdin: What value of self-aminoacylation has been recorded for this entry: AUUACCAUGGUCGUCGAGUGA [Fam2.1 aminoacylation ribozyme variant]
stdout: 1.21

stdin: What value of self-aminoacylation has been recorded for this entry: CCACAGUUCACGCAAUCGGUC [Fam1B.1 aminoacylation ribozyme variant]
stdout: 1.45

stdin: What value of self-aminoacylation has been recorded for this entry: CCACACCUCAACCAAUCGGUC [Fam1B.1 aminoacylation ribozyme variant]
stdout: 1.11

stdin: What value of self-aminoacylation has been recorded for this entry: CCACACUCCAAGCAAUCGGUG [Fam1B.1 aminoacylation ribozyme variant]
stdout: 4.43

stdin: What value of self-aminoacylation has been recorded for this entry: AAGUUUGCUAACAGUCGAAAG [Fam3.1 aminoacylation ribozyme variant]
stdout: 0.878

stdin: What value of self-aminoacylation has been recorded for this entry: AUUUACCUAGGUCCUCGGGUG [Fam2.2 aminoacylation ribozyme variant]
stdout: 3.33

----------
tested on: biotinyl-Ile-oxazolone; test: self-aminoacylation, catalytic enhancement (BIO) (fold over background); higher = more active; k-Seq, kA / k0A0; sequences stand for … in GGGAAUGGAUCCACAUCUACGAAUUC…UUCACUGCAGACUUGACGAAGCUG
Variants at the floor of the assay were thinned out.
// reported self-aminoacylation per item
The response must contain the number and no unit.

{"columns": ["item_sequence", "self-aminoacylation"],
 "data": [
  ["CCAAACUUCAAGCGAUCGGUC [Fam1B.1 aminoacylation ribozyme variant]", 1.1],
  ["AGGCACCUAGGUCAUCGGGUG [Fam2.2 aminoacylation ribozyme variant]", 2.94],
  ["AUGUUUGCUAGUAGUCGCAAG [Fam3.1 aminoacylation ribozyme variant]", 0.957]
]}

stdin: Query self-aminoacylation on biotinyl-Ile-oxazolone for UUUCACCUAGCUCAUCGGGUG [Fam2.2 aminoacylation ribozyme variant]
stdout: 2.03

stdin: Query self-aminoacylation on biotinyl-Ile-oxazolone for AGUCACCUAGGUCAUAGGGUG [Fam2.2 aminoacylation ribozyme variant]
stdout: 2.18

stdin: Query self-aminoacylation on biotinyl-Ile-oxazolone for ACUGCCCUGGUCAUCGAGUGA [Fam2.1 aminoacylation ribozyme variant]
stdout: 13.4

stdin: Query self-aminoacylation on biotinyl-Ile-oxazolone for CCACACUUCAAGCGAUAGGUC [Fam1B.1 aminoacylation ribozyme variant]
stdout: 0.605

stdin: Query self-aminoacylation on biotinyl-Ile-oxazolone for CCACACUUAUAGCAAUCGGUC [Fam1B.1 aminoacylation ribozyme variant]
stdout: 1

----------
tested on: biotinyl-Met-oxazolone; experiment: self-aminoacylation, catalytic enhancement (BMO) (fold over background); higher = more active; k-Seq, kA / k0A0; sequences stand for … in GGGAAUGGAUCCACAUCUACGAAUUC…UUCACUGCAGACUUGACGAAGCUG
Fewer inactive variants are shown than the library holds.
// reported self-aminoacylation per item
The response must contain the number and no unit.

Observe how each entry below is paired with its result.
{"columns": ["item_sequence", "assay_result"],
 "data": [
  ["AUUCACCCAGGUCCUCGGGUG [Fam2.2 aminoacylation ribozyme variant]", 5.45],
  ["CUACUUCAAACAAUUGGUCGG [Fam1A.1 aminoacylation ribozyme variant]", 0.91]
]}

stdin: What value of self-aminoacylation has been recorded for this entry: AUUACCCUGGUCAUCGGGUAA [Fam2.1 aminoacylation ribozyme variant]
stdout: 35.6

stdin: What value of self-aminoacylation has been recorded for this entry: AAGUUGGCGAAUAGUCGCAAG [Fam3.1 aminoacylation ribozyme variant]
stdout: 1.64

----------
system: biotinyl-Val-oxazolone; assay: self-aminoacylation, catalytic enhancement (BVO) (fold over background); higher = more active; k-Seq, kA / k0A0; sequences stand for … in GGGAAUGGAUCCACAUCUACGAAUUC…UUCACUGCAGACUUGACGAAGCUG
Variants at the floor of the assay were thinned out.
// reported self-aminoacylation per item

Observe how each entry below is paired with its result.
{"columns": ["item_sequence", "assay_result"],
 "data": [
  ["AUUCACCUAGGUCAUCGGAGG [Fam2.2 aminoacylation ribozyme variant]", 1.03],
  ["AUUACCCUGGUCAACGGGUGA [Fam2.1 aminoacylation ribozyme variant]", 4.61],
  ["AAGUUUGCAAAUAGUCUCAAG [Fam3.1 aminoacylation ribozyme variant]", 0.772],
  ["AUGCAUCUAGGUCAUCGGGUG [Fam2.2 aminoacylation ribozyme variant]", 5.41]
]}

stdin: What value of self-aminoacylation has been recorded for this entry: CUUCUUCAAACAAUCGGUCAG [Fam1A.1 aminoacylation ribozyme variant]
stdout: 0.734

stdin: What value of self-aminoacylation has been recorded for this entry: CUACUUCAAUCUAUCGGUCUG [Fam1A.1 aminoacylation ribozyme variant]
stdout: 0.907

stdin: What value of self-aminoacylation has been recorded for this entry: AUUCUGCUAGGUCAUCGGGUG [Fam2.2 aminoacylation ribozyme variant]
stdout: 6.13

stdin: What value of self-aminoacylation has been recorded for this entry: CUUACCCUGGUCAUCGAGUCA [Fam2.1 aminoacylation ribozyme variant]
stdout: 1.07

stdin: What value of self-aminoacylation has been recorded for this entry: AUUCACGUAGGUCAUCAGGUG [Fam2.2 aminoacylation ribozyme variant]
stdout: 2.24
